B1: SAM and SH3 domain-containing protein 1, residues 630 to 700; numbered along this chain, O94885 (parent)
chain: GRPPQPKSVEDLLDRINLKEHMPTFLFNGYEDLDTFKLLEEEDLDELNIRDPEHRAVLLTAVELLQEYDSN

- Variants of: B1
- ASSAY_COMMENT: abundance fitness (aPCA) (normalised: wild type 0, dead -1); higher = more abundant; growth selection in yeast, the domain comes from the species named
- ASSAY_SETUP: Homo sapiens
OBSERVED_PROPERTY: abundance fitness

[[record]]
variant_identifier = "L44Y"
value_reported = -0.755

[[record]]
variant_identifier = "Q66R"
value_reported = 0.33

[[record]]
variant_identifier = "L12P"
value_reported = -0.916

[[record]]
variant_identifier = "E31G"
value_reported = 0.313

[[record]]
variant_identifier = "D32R"
value_reported = -0.268

[[record]]
variant_identifier = "E20M"
value_reported = -0.212

[[record]]
variant_identifier = "R55V"
value_reported = -0.591

[[record]]
variant_identifier = "A56D"
value_reported = -0.096

[[record]]
variant_identifier = "H54P"
value_reported = -0.733

[[record]]
variant_identifier = "H54F"
value_reported = -1.03

[[record]]
variant_identifier = "L39K"
value_reported = -0.928

[[record]]
variant_identifier = "F27I"
value_reported = 0.157

[[record]]
variant_identifier = "A61C"
value_reported = -0.483

[[record]]
variant_identifier = "H54Y"
value_reported = -0.857

[[record]]
variant_identifier = "M22G"
value_reported = -0.346

[[record]]
variant_identifier = "L44N"
value_reported = -0.822

[[record]]
variant_identifier = "L33Y"
value_reported = -1.15

[[record]]
variant_identifier = "K37I"
value_reported = -0.848

[[record]]
variant_identifier = "I49Q"
value_reported = -0.92

[[record]]
variant_identifier = "S70F"
value_reported = -0.508

[[record]]
variant_identifier = "E40W"
value_reported = -0.933

[[record]]
variant_identifier = "E10V"
value_reported = -0.413

[[record]]
variant_identifier = "N48S"
value_reported = -0.388

[[record]]
variant_identifier = "L59M"
value_reported = 0.001

[[record]]
variant_identifier = "I49W"
value_reported = -0.823

[[record]]
variant_identifier = "Y68C"
value_reported = 0.105

[[record]]
variant_identifier = "A61H"
value_reported = -0.497

[[record]]
variant_identifier = "L13G"
value_reported = -0.752

[[record]]
variant_identifier = "L44E"
value_reported = -0.757

[[record]]
variant_identifier = "L18H"
value_reported = -0.714

[[record]]
variant_identifier = "S70T"
value_reported = 0.422

[[record]]
variant_identifier = "D34Y"
value_reported = -0.679

[[record]]
variant_identifier = "Q5E"
value_reported = -0.481

[[record]]
variant_identifier = "Y68A"
value_reported = 0.245

[[record]]
variant_identifier = "N28W"
value_reported = -0.553

[[record]]
variant_identifier = "I49S"
value_reported = -0.876

[[record]]
variant_identifier = "K19W"
value_reported = -0.607

[[record]]
variant_identifier = "D34N"
value_reported = -0.123

[[record]]
variant_identifier = "N17Y"
value_reported = -0.904

[[record]]
variant_identifier = "D11G"
value_reported = -0.649

[[record]]
variant_identifier = "L65G"
value_reported = -0.808

[[record]]
variant_identifier = "R2M"
value_reported = -0.442

[[record]]
variant_identifier = "K37D"
value_reported = -0.791

[[record]]
variant_identifier = "D45L"
value_reported = -0.113

[[record]]
variant_identifier = "R50L"
value_reported = 0.091

[[record]]
variant_identifier = "L38E"
value_reported = 0.03

[[record]]
variant_identifier = "E41V"
value_reported = -0.495

[[record]]
variant_identifier = "R55M"
value_reported = -0.896

[[record]]
variant_identifier = "D43I"
value_reported = -0.584

[[record]]
variant_identifier = "L18C"
value_reported = -0.523

[[record]]
variant_identifier = "Y68N"
value_reported = 0.138

[[record]]
variant_identifier = "L39T"
value_reported = -0.79

[[record]]
variant_identifier = "K19P"
value_reported = -0.279

[[record]]
variant_identifier = "Y30K"
value_reported = -0.901

[[record]]
variant_identifier = "K19I"
value_reported = -0.073

[[record]]
variant_identifier = "D11C"
value_reported = -0.795

[[record]]
variant_identifier = "I49E"
value_reported = -0.79

[[record]]
variant_identifier = "V9M"
value_reported = -0.52

[[record]]
variant_identifier = "A61R"
value_reported = -0.904

[[record]]
variant_identifier = "L59T"
value_reported = -0.562

[[record]]
variant_identifier = "Y30C"
value_reported = -0.704

[[record]]
variant_identifier = "R15F"
value_reported = -0.286

[[record]]
variant_identifier = "E67S"
value_reported = 0.039

[[record]]
variant_identifier = "D43G"
value_reported = -0.444

[[record]]
variant_identifier = "I16A"
value_reported = -0.424

[[record]]
variant_identifier = "V62F"
value_reported = -0.916

[[record]]
variant_identifier = "L58I"
value_reported = 0.167

[[record]]
variant_identifier = "E10A"
value_reported = -0.145

[[record]]
variant_identifier = "E53Q"
value_reported = -0.051

[[record]]
variant_identifier = "L18P"
value_reported = -0.996

[[record]]
variant_identifier = "E67T"
value_reported = -0.048

[[record]]
variant_identifier = "L18E"
value_reported = -0.797

[[record]]
variant_identifier = "R50T"
value_reported = 0.183

[[record]]
variant_identifier = "L64A"
value_reported = 0.343

[[record]]
variant_identifier = "K19G"
value_reported = -0.236

[[record]]
variant_identifier = "N28F"
value_reported = -0.426

[[record]]
variant_identifier = "R15S"
value_reported = 0.116

[[record]]
variant_identifier = "D43S"
value_reported = -0.359

[[record]]
variant_identifier = "K7Q"
value_reported = -0.119

[[record]]
variant_identifier = "L38R"
value_reported = -0.041

[[record]]
variant_identifier = "L13D"
value_reported = -0.762

[[record]]
variant_identifier = "D45S"
value_reported = -0.544

[[record]]
variant_identifier = "Q5P"
value_reported = -0.276

[[record]]
variant_identifier = "F36N"
value_reported = -0.719

[[record]]
variant_identifier = "P6K"
value_reported = -0.63

